# tested.system: C5a anaphylatoxin chemotactic receptor 1 (Homo sapiens)
# assay.comment: Potency as the maximal lysosomal myeloperoxidase (MPO) release in PMNL assay
value.kind: pEC50
Give bare numbers, as −log10 of the molar value.

Lab note: each substance below needs its pEC50 filled in.
1. Ac-FKDMQLGR-OH
2. H-LRANISFKDMQLGR-OH

Ans.
1: 4.46; 2: 4.22
